Assay: Intrinsic clearance in dog liver microsomes
Type: ADME, Canis lupus familiaris, microsome
Conditions: read-out: CLH
Provide the reported CLint scaled of each item.
Include the unit after the number when you answer.

Looking up C=CC(=O)Nc1cc(Nc2nccc(-c3cn4c5c(cccc35)CCC4)n2)c(OC)cc1N(C)CCN(C)C , I found its CLint scaled recorded as 63.4 mL/min/kg

The molecule listed as C=CC(=O)Nc1cc(Nc2nccc(-c3cn(C)c4ccccc34)n2)c(OC)cc1N(C)CCN(C)C [OSIMERTINIB] has a reported CLint scaled of 95 mL/min/kg

----------
Test system: A-431
Experiment: Antiproliferative activity against human A431 cells harboring wild-type EGFR
Assay type: functional, cell-based
property: IC50 (µM)
Number only, in µM; omit the unit.

# IC50 (molecule: C=CC(=O)Nc1cc(Nc2nccc(-c3cn4c5c(cccc35)CCC4)n2)c(OC)cc1N1CC(CN(C)C)C1 ) is 1.47

Entry under test: C=CC(=O)Nc1cc(Nc2nccc(-c3cn4c5c(cccc35)CCC4)n2)c(OC)cc1N1CC(N(C)C)C1 . Its IC50 was 1.12

Lookup result for C=CC(=O)Nc1cc(Nc2nccc(-c3cn4c5c(cccc35)CCC4)n2)c(OC)cc1N(C)CCN(C)C ; measured IC50: 0.87
